- target.system: FGFR3 enzyme (Homo sapiens (Human), UniProt P22607)
- Sequence (P22607 23-806): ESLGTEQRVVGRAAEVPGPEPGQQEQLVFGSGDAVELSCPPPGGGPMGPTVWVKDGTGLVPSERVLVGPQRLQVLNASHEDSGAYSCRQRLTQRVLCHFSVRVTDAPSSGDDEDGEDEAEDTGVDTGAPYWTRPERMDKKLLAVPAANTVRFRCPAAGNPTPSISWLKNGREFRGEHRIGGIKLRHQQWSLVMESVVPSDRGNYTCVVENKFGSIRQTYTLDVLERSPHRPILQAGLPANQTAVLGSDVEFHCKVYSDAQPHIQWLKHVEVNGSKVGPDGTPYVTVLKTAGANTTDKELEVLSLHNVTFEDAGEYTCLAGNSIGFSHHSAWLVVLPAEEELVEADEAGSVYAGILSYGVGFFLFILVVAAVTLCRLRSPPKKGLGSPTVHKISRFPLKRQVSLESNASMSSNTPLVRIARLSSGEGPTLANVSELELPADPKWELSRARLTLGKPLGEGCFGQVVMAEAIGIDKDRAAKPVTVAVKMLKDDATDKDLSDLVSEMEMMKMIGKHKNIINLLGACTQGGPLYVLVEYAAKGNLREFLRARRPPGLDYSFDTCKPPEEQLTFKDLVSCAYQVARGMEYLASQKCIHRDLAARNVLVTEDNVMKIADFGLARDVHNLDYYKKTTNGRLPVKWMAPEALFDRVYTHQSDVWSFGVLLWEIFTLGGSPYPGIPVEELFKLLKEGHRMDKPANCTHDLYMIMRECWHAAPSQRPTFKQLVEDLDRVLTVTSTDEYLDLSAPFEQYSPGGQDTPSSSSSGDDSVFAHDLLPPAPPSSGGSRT
- method: FGFR Enzymatic Assay (peptide phosphorylation, FRET), FGFR3
- Type: biochemical
- experimental.setup: IC50 ratio showing FGFR3 selectivity; pre-incubated for 4 hours
Let's look at some compounds and their measured FGFR1/FGFR3.

Q: Hi! What's the reported FGFR1/FGFR3 for COc1cc(OC)c(F)c(N2Cc3cnc(-c4cn(CCN(C)C)nc4C)cc3C3(CC3)C2=O)c1F [Example 164] on FGFR3 enzyme (Homo sapiens (Human), UniProt P22607)?
Ans: >3

Q: Now the same for CCNC(=O)c1ccc(-c2cc3c(cn2)CN(c2c(F)c(OC)cc(OC)c2F)C(=O)N3CC)cn1 [Example 175]
Ans: >10

Q: // same read-out, input: COc1cc(OC)c(F)c(N2Cc3cnc(-c4cn(CCCN5CCOCC5)nc4C)cc3C3(CC3)C2=O)c1F [Example 146]
Ans: >10

Q: Same question, COc1cc(OC)c(F)c(N2Cc3cnc(-c4cn(C)nc4C)cc3N(CCc3cnn(C)c3)C2=O)c1F [Example 114] this time
Ans: >3

Q: Same for COc1cc(OC)c(F)c(N2Cc3cnc(-c4cn(C)nc4C)cc3N(Cc3ccc4c(c3)OCCO4)C2=O)c1F [Example 38]
Ans: >5

* * *

Item-by-item account of FGFR1/FGFR3
- target.system: FGFR3 enzyme (Homo sapiens (Human), UniProt P22607)
- method: FGFR Enzymatic Assay (peptide phosphorylation, FRET), FGFR3
- Format: biochemical
- experimental.setup: IC50 ratio showing FGFR3 selectivity; pre-incubated for 4 hours

COc1cc(OC)c(F)c(N2Cc3cnc(-c4cnn(C)c4)cc3C3(CC3)C2=O)c1F [Example 186] : >5
CNC(=O)c1ccc(CN2C(=O)N(c3c(F)c(OC)cc(OC)c3F)Cc3cnc(-c4cn(C)nc4C)cc32)cc1 [Example 62] : >10
COc1cc(OC)c(F)c(N2Cc3cnc(-c4cn(C)nc4C)cc3N(C3CCN(S(C)(=O)=O)CC3)C2=O)c1F [Example 71] : >5

Moving on to another molecule below.
Q: Which measured FGFR1/FGFR3 value corresponds to COc1cc(OC)c(F)c(N2Cc3cnc(-c4csc(N(C)C)n4)cc3C3(CC3)C2=O)c1F [Example 160] ?
Ans: >5

* * *

Listing of recorded FGFR2/FGFR4 by entry.
- target.system: FGFR4 (Homo sapiens (Human))
- method: FGFR Enzymatic Assay (peptide phosphorylation, FRET), FGFR4
- Type: biochemical
- experimental.setup: IC50 ratio showing FGFR4 selectivity; pre-incubated for 4 hours

Example cases with answers are listed next.
COc1cc(OC)c(F)c(N2Cc3cnc(-c4cc(N)c(F)cc4C)cc3C3(CC3)C2=O)c1F : >10
COc1cc(OC)c(F)c(N2Cc3cnc(-c4[nH]ncc4C#N)cc3C3(CC3)C2=O)c1F : >10
COc1cc(OC)c(F)c(N2Cc3cnc(-c4cc(N)ccc4C)cc3C3(CC3)C2=O)c1F : >25

Q: Consider the compound COc1cc(OC)c(F)c(N2Cc3cnc(-c4cccnc4)cc3C3(CC3)C2=O)c1F and give its measured FGFR2/FGFR4.
Ans: >1

* * *

Recorded FGFR4/FGFR3 by entry
- target.system: FGFR3 enzyme (Homo sapiens (Human), UniProt P22607)
- method: FGFR Enzymatic Assay (peptide phosphorylation, FRET), FGFR3
- Format: biochemical
- experimental.setup: IC50 ratio showing FGFR3 selectivity; pre-incubated for 4 hours

COc1cc(OC)c(F)c(N2Cc3cnc(-c4cn(CC#N)nc4C)cc3C3(CC3)C2=O)c1F : >3
COc1cc(OC)c(F)c(N2Cc3cnc(-c4cn(C)nc4C)cc3N(Cc3cccnn3)C2=O)c1F : >10
COc1cc(OC)c(F)c(N2Cc3cnc(-c4ccc(C5(C#N)CCC5)nc4)cc3N(c3cnn(C)c3)C2=O)c1F : >5
CCc1cnc(N2C(=O)N(c3c(F)c(OC)cc(OC)c3F)Cc3cnc(-c4cn(C)nc4C)cc32)cn1 : >5
CCN1C(=O)N(c2c(F)c(OC)cc(OC)c2F)Cc2cnc(-c3ccc(C4(C#N)CCC4)cc3)cc21 : >10

Q: Item: COc1cc(OC)c(F)c(N2Cc3cnc(-c4cn(C)nc4C)cc3N(C(C)C)C2=O)c1F Test system: FGFR3 enzyme (Homo sapiens (Human), UniProt P22607) Read-out: FGFR4/FGFR3 Value: ?
Ans: >5

Q: Would you kindly repeat that for CCN1C(=O)N(c2c(F)c(OC)cc(OC)c2F)Cc2cnc(-c3ccc(C(C)(C)C#N)nc3)cc21 ?
Ans: >5

* * *

- target.system: FGFR3 enzyme (Homo sapiens (Human), UniProt P22607)
- method: FGFR Enzymatic Assay (peptide phosphorylation, FRET), FGFR3
- Assay type: biochemical
- experimental.setup: IC50 ratio showing FGFR3 selectivity; pre-incubated for 4 hours
FGFR4/FGFR3: recorded values

The following compounds have reported results that may help.
COc1cc(OC)c(F)c(N2Cc3cnc(-c4cn(C)nc4C)cc3N(c3ccc4ccncc4c3)C2=O)c1F : >5
COc1cc(OC)c(F)c(N2Cc3cnc(-c4cnn(CCN5CCOCC5)c4)cc3C3(CC3)C2=O)c1F : >3
COc1cc(OC)c(F)c(N2Cc3cnc(-c4cn(C)nc4C)cc3N(c3cccnc3)C2=O)c1F : >10
CCc1nnc(CN2C(=O)N(c3c(F)c(OC)cc(OC)c3F)Cc3cnc(-c4cn(C)nc4C)cc32)o1 : >10
COc1cc(OC)c(F)c(N2Cc3cnc(-c4cnn(C5(C#N)CCC5)c4C)cc3C3(CC3)C2=O)c1F : >3
COc1cc(OC)c(F)c(N2Cc3cnc(-c4cnn(C5CCN(C(C)=O)C5)c4)cc3C3(CC3)C2=O)c1F (stereo not shown) : >5

Note: attention shifts to another entry.
Q: Give the measured FGFR4/FGFR3 of COc1cc(OC)c(F)c(N2Cc3cnc(-c4cn(C)nc4C)cc3N(c3ccc4[nH]ncc4c3)C2=O)c1F .
Ans: >5

* * *

Recorded FGFR2/FGFR4, one value per entry.
- target.system: FGFR4 (Homo sapiens (Human), UniProt P22455)
- Sequence (P22455 22-802): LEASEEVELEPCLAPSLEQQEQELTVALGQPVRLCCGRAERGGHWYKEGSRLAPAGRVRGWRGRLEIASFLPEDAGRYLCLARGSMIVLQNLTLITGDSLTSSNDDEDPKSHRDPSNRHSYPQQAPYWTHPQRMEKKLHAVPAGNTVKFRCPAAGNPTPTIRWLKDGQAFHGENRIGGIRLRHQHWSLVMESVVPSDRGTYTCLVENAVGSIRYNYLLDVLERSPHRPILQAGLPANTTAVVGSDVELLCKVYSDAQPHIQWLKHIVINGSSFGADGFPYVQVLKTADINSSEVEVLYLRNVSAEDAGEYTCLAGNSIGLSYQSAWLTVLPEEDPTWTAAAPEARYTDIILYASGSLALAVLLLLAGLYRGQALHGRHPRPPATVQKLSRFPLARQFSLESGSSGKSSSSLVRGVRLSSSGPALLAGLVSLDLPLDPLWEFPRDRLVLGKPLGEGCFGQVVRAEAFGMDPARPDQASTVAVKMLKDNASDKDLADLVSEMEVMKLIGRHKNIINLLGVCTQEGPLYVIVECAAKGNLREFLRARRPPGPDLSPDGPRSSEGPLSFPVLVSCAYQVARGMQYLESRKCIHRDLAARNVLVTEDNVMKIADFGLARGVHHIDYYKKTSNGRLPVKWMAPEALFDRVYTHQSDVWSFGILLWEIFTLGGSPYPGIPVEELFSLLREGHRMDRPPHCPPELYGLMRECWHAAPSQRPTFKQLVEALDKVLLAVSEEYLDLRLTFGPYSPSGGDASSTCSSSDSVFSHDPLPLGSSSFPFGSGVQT
- method: FGFR Enzymatic Assay (peptide phosphorylation, FRET), FGFR4
- Format: biochemical
- experimental.setup: IC50 ratio showing FGFR4 selectivity; pre-incubated for 4 hours

COc1cc(OC)c(F)c(N2Cc3cnc(-c4cncc(CN5CCOCC5)c4)cc3C3(CC3)C2=O)c1F : >25
COc1cc(OC)c(F)c(N2Cc3cnc(-c4cncc(C(=O)N5CCOCC5)c4)cc3C3(CC3)C2=O)c1F : >25

Q: Item under review: COc1cc(OC)c(F)c(N2Cc3cnc(-c4cncc(C#N)c4)cc3C3(CC3)C2=O)c1F . Reported FGFR2/FGFR4?
Ans: >10

Q: // same read-out, input: COc1cc(OC)c(F)c(N2Cc3cnc(-c4cncc(S(=O)(=O)N5CCOCC5)c4)cc3C3(CC3)C2=O)c1F
Ans: >10

Q: Similarly, COc1cc(OC)c(F)c(N2Cc3cnc(-c4cncc(NS(C)(=O)=O)c4)cc3C3(CC3)C2=O)c1F ?
Ans: >25

Q: Could you do the same for COc1cc(OC)c(F)c(N2Cc3cnc(-c4cncc(N5CCOCC5)c4)cc3C3(CC3)C2=O)c1F , please?
Ans: >100

Q: Follow-up item: COc1cc(OC)c(F)c(N2Cc3cnc(-c4cncc(F)c4)cc3C3(CC3)C2=O)c1F
Ans: >5

* * *

- target.system: UniProt P22455
- method: FGFR Enzymatic Assay (peptide phosphorylation, FRET), FGFR4
- Type: biochemical
- experimental.setup: IC50 ratio showing FGFR4 selectivity; pre-incubated for 4 hours
Attribute: FGFR1/FGFR4

Q: Entry COc1cc(OC)c(F)c(N2Cc3cnc(-c4cncc(Cl)c4)cc3C3(CC3)C2=O)c1F [Example 11] : reported FGFR1/FGFR4 = ?
Ans: >25

Q: Same question, COc1cc(OC)c(F)c(N2Cc3cnc(-c4cncc(C(=O)N5CCOCC5)c4)cc3C3(CC3)C2=O)c1F [Example 13] this time
Ans: >50

Q: Here is the next molecule: COc1cc(OC)c(F)c(N2Cc3cnc(-c4nn(CC#N)cc4C#N)cc3C3(CC3)C2=O)c1F [Example 174]
Ans: >100

Q: Entry COc1cc(OC)c(F)c(N2Cc3cnc(-c4cc(N)ccc4C#N)cc3C3(CC3)C2=O)c1F [Example 3] please
Ans: >25

Q: Likewise for COc1cc(OC)c(F)c(N2Cc3cnc(-c4cncc(NS(C)(=O)=O)c4)cc3C3(CC3)C2=O)c1F [Example 15] ?
Ans: >50

Q: Lookup COc1cc(OC)c(F)c(N2Cc3cnc(-c4[nH]ncc4C#N)cc3C3(CC3)C2=O)c1F [Example 171]
Ans: >10

Q: What do we get for COc1cc(OC)c(F)c(N2Cc3cnc(-c4cncc(C#N)c4)cc3C3(CC3)C2=O)c1F [Example 8] ?
Ans: >50

Q: Note, next up: COc1cc(OC)c(F)c(N2Cc3cnc(-c4cccnc4)cc3C3(CC3)C2=O)c1F [Example 9]
Ans: >10

Q: Field entry: COc1cc(OC)c(F)c(N2Cc3cnc(-c4cncc(S(=O)(=O)N5CCOCC5)c4)cc3C3(CC3)C2=O)c1F [Example 14]
Ans: >50

Q: Record: COc1cc(OC)c(F)c(N2Cc3cnc(-c4cc(N)c(F)cc4C)cc3C3(CC3)C2=O)c1F [Example 2]
Ans: >10

Q: Also COc1cncc(-c2cc3c(cn2)CN(c2c(F)c(OC)cc(OC)c2F)C(=O)C32CC2)c1 [Example 10] ?
Ans: >25

Q: Moving on to COc1cc(OC)c(F)c(N2Cc3cnc(-c4nn(C)cc4C#N)cc3C3(CC3)C2=O)c1F [Example 172]
Ans: >50
